target: poly(dG)-poly(dC) 20-mer; test: Thiazole orange total fluorescence titration with non-target DNA; settings: 50 nM TO-ZF or TO; fit to equation 2; read-out: dissociation constant, non-specific binding
measured endpoint: Kd (nM)
Numbers only here, please. The scale is nM.

[ask] Report Kd for CN1C(=Cc2cc[n+](C)c3ccccc23)Sc2ccccc21
[reply] 2400
